Each item that follows carries a reported furin cleavage Z-score.
# test.system: furin, P09958;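 note: purified furin at 1:10 enzyme:substrate in 50 mM HEPES pH 7.5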
# Sequence (P09958 whole entry): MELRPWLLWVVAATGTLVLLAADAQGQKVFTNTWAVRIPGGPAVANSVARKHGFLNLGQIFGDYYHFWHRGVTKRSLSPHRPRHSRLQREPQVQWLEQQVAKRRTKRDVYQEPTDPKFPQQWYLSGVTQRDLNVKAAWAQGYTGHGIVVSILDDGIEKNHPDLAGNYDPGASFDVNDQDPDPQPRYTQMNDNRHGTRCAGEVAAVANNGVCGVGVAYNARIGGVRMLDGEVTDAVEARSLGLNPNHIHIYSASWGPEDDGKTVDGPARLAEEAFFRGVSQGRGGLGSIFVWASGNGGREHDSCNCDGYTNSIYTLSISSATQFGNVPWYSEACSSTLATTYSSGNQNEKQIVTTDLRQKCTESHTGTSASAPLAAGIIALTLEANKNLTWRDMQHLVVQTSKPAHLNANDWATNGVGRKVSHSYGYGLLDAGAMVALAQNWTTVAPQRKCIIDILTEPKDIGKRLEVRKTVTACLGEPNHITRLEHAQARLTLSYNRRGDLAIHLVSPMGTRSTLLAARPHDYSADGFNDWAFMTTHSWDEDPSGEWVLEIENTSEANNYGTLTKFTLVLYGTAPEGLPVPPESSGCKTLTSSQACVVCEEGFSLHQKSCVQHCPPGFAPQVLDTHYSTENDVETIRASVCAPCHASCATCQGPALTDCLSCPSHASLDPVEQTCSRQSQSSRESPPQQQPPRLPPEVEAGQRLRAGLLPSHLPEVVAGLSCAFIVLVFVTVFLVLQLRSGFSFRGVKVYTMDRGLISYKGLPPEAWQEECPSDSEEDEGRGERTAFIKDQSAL
# procedure.summary: furin cleavage Z-score vs untreated control; higher = more cleavage, active = 3.5 or more, inactive = 1 or less, 8 variable residues between constant flanks
# run.conditions: 30 min
The other results are listed elsewhere or left out. The hit rate among all sequences tested is not known here.
endpoint.label: furin cleavage Z-score

- CAMEECSQHYAGNASASA [HC1769]: 2.12
- CARQPRPAGVAGNASASA [FS-3041]: -0.629 (inactive)
- CARSKRREMQAGNASASA [FS-3207]: 0.62 (inactive)
- CAGVRTITTGAGNASASA [HC801]: -1.39 (inactive)
- CARDKKSLLQAGNASASA [FS-2133]: -0.611 (inactive)
- CARSKRAQTQAGNASASA [FS-2807]: 3.76 (active)
- CALDVSVIPTAGNASASA [HC871]: -0.758 (inactive)
- CARSKRKKEVAGNASASA [FS-2304]: -0.337 (inactive)
- CASVPCSAHLAGNASASA [HC2490]: 1.54
- CAFRVRSRRWAGNASASA [FS-328]: 9.2 (active)
- CAFRNRNQRIAGNASASA [FS-235]: 0.794 (inactive)
- CARIVGPRTCAGNASASA [HC1183]: -0.233 (inactive)
- CASAPCSAHLAGNASASA [HC2483]: 0.332 (inactive)
- CAQKDRARRPAGNASASA [FS-1605]: 0.363 (inactive)
- CALTPCSGSWAGNASASA [HC1825]: -0.734 (inactive)
- CASLARGRRSAGNASASA [FS-295]: 7.6 (active)
- CARFPRGVSRAGNASASA [FS-3247]: -0.752 (inactive)
- CAAQLLRIPQAGNASASA [HC328]: 0.847 (inactive)
- CAVGERFRRDAGNASASA [FS-386]: 8.87 (active)
- CAYLNRGRRSAGNASASA [FS-1504]: 8.66 (active)
- CARDKRLAYSAGNASASA [FS-3217]: 0.271 (inactive)
- CAHSTDATSIAGNASASA [HC820]: 0.297 (inactive)
- CAKGWRLLAPAGNASASA [HC671]: -0.469 (inactive)
- CARRRRGFRQAGNASASA [FS-2788]: 4.63 (active)
- CARFPRFVNVAGNASASA [FS-2925]: 7.1 (active)
- CAVVCCWMSYAGNASASA [HC107]: -1.73 (inactive)
- CARSKRASYVAGNASASA [FS-2808]: 8.21 (active)
- CANVCCSMSYAGNASASA [HC2001]: 1.28
- CAAPPPSWDQAGNASASA [HC960]: -0.277 (inactive)
- CALGARERRDAGNASASA [FS-1226]: 11.8 (active)
